Let's look at some molecules and their measured viability.
method.summary: HUVEC growth inhibition – cell-based, human, primary screen (AID 575);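 note: 100% = median of untreated cell wells with 0.1% DMSO on each plate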
condition.parameters: HUVEC proliferation, CellTiter-Glo luminescence, 72 h; at 10 µM; stronger effect = lower value
Number in %, nothing else.

# annotated cases, reported viability shown
Exercise: Look up viability: CNC(=O)Nc1cccc(C(F)(F)F)c1
Key: 93

Exercise: O=[n+]1c2c(n([O-])c3c1CCCC3)CCCC2 ?
Key: 93.9

Exercise: Would you mind doing CC(=O)C1=C(C)NC(SCSc2ccccc2)=C(C#N)C1c1cccnc1 (stereo unspecified) as well?
Key: 81.7

Exercise: Now consider CC(C)OC(=O)CSc1nnc(-c2ccc(C(C)(C)C)cc2)n1N and answer again.
Key: 86.7

New cases:
Exercise: Query (molecule): O=C1C(Cl)=C(N2CCOCC2)C(=O)N1CCc1ccccc1 ; field requested: viability
Key: 89.3

Exercise: Also CC(=O)Nc1c(-c2ccc(F)cc2)nc2ccccn12 ?
Key: 114

Exercise: Try this molecule too: COc1cc(C2=NOC(C(=O)NCc3ccc(F)cc3)C2)cc(OC)c1OC (stereo unspecified)
Key: 39.9

Exercise: Also need Cc1[nH]c(=O)[nH]c(=O)c1S(=O)(=O)Nc1ccc(Oc2ccccc2)cc1 , thanks.
Key: 93.6

Exercise: COc1ccc(S(=O)(=O)NCC(=O)N(CC(=O)NCC2CCCO2)c2ccccc2C)cc1 (stereo unspecified) ?
Key: 107

Exercise: And the next one, COc1ccc(CCNC(=O)C2CCN(Cc3nc(-c4cccc(Cl)c4)oc3C)CC2)cc1OC ?
Key: 47.9

###

Each entry below carries its reported viability.
method.summary: reversal of MRP1-mediated doxorubicin resistance, pilot screen, H69AR cells, doxorubicin co-treatment (AID 601)
condition.parameters: H69AR cells, CellTiter-Glo, 72 h; compound alone cytotoxicity; at 10 µM
Kindly provide the numeric value in % only, without the unit symbol.

Record excerpt, results attached:
Exercise: So what does the record say about viability for COc1ccc(OC)c(C2=NOC(C(=O)NCCN3CCOCC3)C2)c1 (centres undefined) ?
Key: 90.6

Exercise: Repeat for the following compound: CCc1cc(C)cc(OCCNC(=O)c2ncn[nH]2)c1
Key: 90.8

Exercise: Another compound to check: COCCOC(=O)/C=C1/NC(=O)CS1
Key: 93.8

Exercise: # iterate: CC(=O)Nc1ccc2c(c1)nc(CCNC(=O)c1ccccc1)n2C
Key: 102

Exercise: Continue with Cc1ccccc1NC(=O)NCCCN1CCN(C2CCCCC2)CC1
Key: 95.8

---
Exercise: Item CC(=O)Nc1nc(-c2ccc(Cl)cc2)nc(C)c1C(C)=O has what recorded viability?
Key: 104

Exercise: Repeat with O=C(COC(=O)C12CC3CC(CC(O)(C3)C1)C2)N1CCN(S(=O)(=O)c2ccc(Cl)cc2)CC1
Key: 83.6

Exercise: Item: COC(C)(C)c1cc(C(C)(C)C)nc(N)n1
Key: 89.9

Exercise: One more compound: Cc1cnn(Cc2ccccc2)c1N
Key: 88.7

###

method.summary: reversal of MRP1-mediated doxorubicin resistance, pilot screen, H69AR cells, doxorubicin co-treatment (AID 601)
condition.parameters: H69AR cells + 2 uM doxorubicin, CellTiter-Glo, 72 h; measured here: viability with 2 uM doxorubicin; at 10 µM; stronger effect = lower value
Note to self: viability under 90% means Yes, ties and anything higher get No.

A selection of reference data follows.
Exercise: Does the reported viability of COCc1cc(C)nc(SCC(=O)Nc2cccc(C)c2C)c1C#N stay below 90%?
Key: Yes

Exercise: Then this molecule: CC(=O)NC(Cc1ccccc1)C(=O)NC1CCN(C(=O)c2cnccn2)CC1 (centres undefined)
Key: No

Exercise: What about CCOc1cc2[nH]c(=O)n(CCCCC(=O)N3CCCCCC3)c(=O)c2cc1OCC ?
Key: Yes

Exercise: Please answer likewise for CCOc1cc(C(=O)Nc2ccon2)cc(OCC)c1OCC
Key: No

Exercise: For Cc1ccc(NCC(O)C(O)C(O)CO)cc1C (centres undefined) then?
Key: No

More entries:
Exercise: Quick check: viability of CCNS(=O)(=O)c1ccc(S(=O)(=O)N(Cc2ccccn2)C2CCCCC2)cc1 under 90%?
Key: Yes

Exercise: Same thing, different molecule: COc1cccc(-n2ccnc2SCC(=O)N2CCc3ccccc32)c1
Key: No
